// provenance: paper PMC3241989

# EXPERIMENTAL_SYSTEM: SNF1 complex (Snf1(1-633)Gal83(1-417)Snf4(1-322)) (Saccharomyces cerevisiae)
# Construct: full-length heterotrimer, His-tagged, expressed in E. coli, nickel-Sepharose; phosphorylated on Snf1 Thr210 by CaMKKbeta; with Carbon catabolite-derepressing protein kinase; SNF1 protein kinase subunit beta-3
# Sequence (P12904 1-322): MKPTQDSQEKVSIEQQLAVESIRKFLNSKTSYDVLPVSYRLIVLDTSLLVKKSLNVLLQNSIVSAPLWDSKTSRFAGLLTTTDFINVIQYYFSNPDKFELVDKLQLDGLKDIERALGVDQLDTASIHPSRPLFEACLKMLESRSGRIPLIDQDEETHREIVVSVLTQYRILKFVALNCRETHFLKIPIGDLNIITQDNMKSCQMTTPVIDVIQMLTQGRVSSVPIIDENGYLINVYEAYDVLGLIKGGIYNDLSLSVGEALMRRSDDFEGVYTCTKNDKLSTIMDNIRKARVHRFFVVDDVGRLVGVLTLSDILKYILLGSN
# Sequence (P06782 1-633 partner): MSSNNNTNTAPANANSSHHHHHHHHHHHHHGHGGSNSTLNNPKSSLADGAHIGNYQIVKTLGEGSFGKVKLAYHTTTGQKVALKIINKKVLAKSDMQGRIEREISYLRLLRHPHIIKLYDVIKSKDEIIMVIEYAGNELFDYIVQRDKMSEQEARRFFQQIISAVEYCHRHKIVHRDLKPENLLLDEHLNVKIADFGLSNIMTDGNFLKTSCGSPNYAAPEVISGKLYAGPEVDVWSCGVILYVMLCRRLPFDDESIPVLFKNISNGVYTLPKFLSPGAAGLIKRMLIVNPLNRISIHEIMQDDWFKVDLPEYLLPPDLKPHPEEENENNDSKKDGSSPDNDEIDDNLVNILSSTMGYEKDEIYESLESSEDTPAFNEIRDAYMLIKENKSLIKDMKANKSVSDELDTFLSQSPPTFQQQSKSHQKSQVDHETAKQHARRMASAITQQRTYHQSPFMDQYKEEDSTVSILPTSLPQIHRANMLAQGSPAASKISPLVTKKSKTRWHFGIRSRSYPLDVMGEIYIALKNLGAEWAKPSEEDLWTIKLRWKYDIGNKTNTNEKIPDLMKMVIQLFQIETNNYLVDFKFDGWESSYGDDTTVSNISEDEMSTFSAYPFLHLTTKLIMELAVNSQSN
# Sequence (Q04739 1-417 partner): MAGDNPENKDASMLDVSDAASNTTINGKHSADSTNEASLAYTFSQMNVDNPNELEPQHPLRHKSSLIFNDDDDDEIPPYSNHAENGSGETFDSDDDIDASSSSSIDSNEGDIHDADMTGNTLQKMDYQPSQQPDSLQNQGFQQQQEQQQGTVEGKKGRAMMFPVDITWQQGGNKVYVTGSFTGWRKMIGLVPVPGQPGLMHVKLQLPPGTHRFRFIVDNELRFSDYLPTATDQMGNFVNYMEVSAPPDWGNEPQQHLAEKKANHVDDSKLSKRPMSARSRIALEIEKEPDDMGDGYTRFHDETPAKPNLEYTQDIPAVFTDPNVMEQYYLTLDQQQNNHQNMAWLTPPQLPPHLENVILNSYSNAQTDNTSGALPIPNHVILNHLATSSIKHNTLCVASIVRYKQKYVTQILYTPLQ
# METHOD_DESCRIPTION: protection of Snf1 phospho-Thr210 against dephosphorylation by PP2C (western blot)
# PROTOCOL_CONDITIONS: read-out: half-maximal effect
pEC50: −log10 of the molar value.
MEASUREMENT_TYPE: pEC50

Data request: Would you kindly share the measured pEC50 for `Nc1ncnc2c1ncn2[C@@H]1O[C@H](COP(=O)(O)OP(=O)(O)O)[C@@H](O)[C@H]1O` ?
Data returned: ~3.30
